assay: I.P. symptomatology: highest tolerated dose and median lethal dose (Table IV); assay type: in vivo; settings: in vivo, ip, I.P.
MEASURED PROPERTY: LD50

1) Oc1ccc2c(c1)CCN(C[C@H]1C[C@@H]1c1ccccc1)CC2 (relative stereo); > 1000 mg/kg

###

test: in vivo; conditions: po
MEASURED PROPERTY: LD50 (mg/kg)

1. COc1ccc2c3c1O[C@H]1[C@@H](O)C=C[C@H]4[C@@H](C2)N(C)CC[C@@]341; 540

###

assay: I.P. symptomatology: highest tolerated dose and median lethal dose (Table IV); format: in vivo; conditions: in vivo, ip; I.P. symptomatology; read-out: HTD (highest tolerated dose)
MEASURED PROPERTY: MTD (mg/kg)

1. COc1ccc2c(c1)CCN(CCc1ccccc1)CC2; 30
